assayProcedure: In vivo pharmacokinetic study in rats, intravenous DUT without or with intravenous KET
Set-up: species or system rat
runConditions: male, Sprague-Dawley, rat, plasma, iv, 2.5 mg/kg, intravenous DUT 2.5 mg/kg, DUT alone, n = 4, read-out: CL
propertyMeasured: clearance (mL/min/kg)
Give bare numbers, in mL/min/kg.

(Q) Bench note: what clearance did C[C@]12C=CC(=O)N[C@@H]1CC[C@@H]1[C@@H]2CC[C@]2(C)[C@@H](C(=O)Nc3cc(C(F)(F)F)ccc3C(F)(F)F)CC[C@@H]12 [DUT, Dutasteride] show?
(A) 2.19

----------
assayProcedure: NADPH-dependent metabolism (disappearance) of DUT in human liver microsomes
Format: in vitro ADME
runConditions: human, human liver microsomes; HLM, DUT 1 to 100 μM, NADPH
propertyMeasured: Km (µM)
Give bare numbers, in µM.

(Q) Bench note: what Km did C[C@]12C=CC(=O)N[C@@H]1CC[C@@H]1[C@@H]2CC[C@]2(C)[C@@H](C(=O)Nc3cc(C(F)(F)F)ccc3C(F)(F)F)CC[C@@H]12 [DUT, Dutasteride] show?
(A) 51.6
